EC50 values by entry
# Target Or Test System: T1, Full length human CD40 (huCD40) on cells (human, UniProt P25942 21-277)
# T1 construct: CD40 on human mature DCs, human B cells, Raji cells and HEK-Blue CD40L cells (stably expressing human CD40); also called TNFRSF5
# T1 sequence (P25942 21-277): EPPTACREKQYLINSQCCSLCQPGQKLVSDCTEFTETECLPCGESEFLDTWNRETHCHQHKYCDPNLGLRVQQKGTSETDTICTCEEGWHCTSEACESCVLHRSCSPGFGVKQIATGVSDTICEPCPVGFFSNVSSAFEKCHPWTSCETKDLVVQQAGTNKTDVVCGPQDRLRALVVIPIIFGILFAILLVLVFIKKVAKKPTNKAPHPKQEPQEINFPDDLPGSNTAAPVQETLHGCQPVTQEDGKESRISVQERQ
# Assay Method Text: flow cytometry, HEK-Blue CD40L cells
Observed Property: EC50 (µg/mL)

1. C40M67 (antibody, human IgG1, kappa, V domains shown, Full-length IgG1/kappa; from phage display) VH: EVQLLESGGGLVQPGGSLRLSCAASGFTFSDYAMNWVRQAPGKGLEWVSGIKSGGSSKYYADSVKGRFTISRDNSKNTLYLQMNSLRAEDTAVYYCAKHVDFYRALDYWGQGTLVTVSS VL: EIVLTQSPGTLSLSPGERATLSCRASQSVKNSSLAWYQQKPGQAPRLLIYTASSRATGIPDRFSGSGSGTDFTLTISRLEPEDFAVYYCQQSSAPPWTFGQGTKVEIKR
0.55
2. C40M9 (antibody, human IgG1, lambda, V domains shown) VH: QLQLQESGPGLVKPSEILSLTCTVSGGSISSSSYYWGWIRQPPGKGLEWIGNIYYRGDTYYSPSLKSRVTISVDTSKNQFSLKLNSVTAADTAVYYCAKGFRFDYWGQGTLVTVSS VL: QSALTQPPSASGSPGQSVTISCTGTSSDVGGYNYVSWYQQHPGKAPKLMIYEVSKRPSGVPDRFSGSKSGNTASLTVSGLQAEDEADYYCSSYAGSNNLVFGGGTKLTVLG
0.0942
3. C40M12 (antibody, human IgG1, lambda, V domains shown, Full-length IgG1/lambda; from OmniRat (OMT)) VH: EVQLVESGGGLVQPGGSLRLSCAASGFTFGSYAMSWVRQAPGKGLEWVSVISDSGGRTYYADSVKGRFTISRDYSKNTLYLQMNSLRAEDTAVYYCAKEGGDYYYYGMDVWGQGTTVTVSS VL: SYELTQPPSVSVSPGQTASIICSGDKLGDKYVCWYQQKPGQSPVVVIYHDNKRPSGIPERFSGSNSGNTATLTISGTQAMDEADYYCQVWDSSTVVFGGGTKLTVLG
0.112
4. C40M18 (antibody, human IgG1, lambda, V domains shown, Full-length IgG1/lambda; from OmniRat (OMT); VH C40H48, VL C40L64) VH: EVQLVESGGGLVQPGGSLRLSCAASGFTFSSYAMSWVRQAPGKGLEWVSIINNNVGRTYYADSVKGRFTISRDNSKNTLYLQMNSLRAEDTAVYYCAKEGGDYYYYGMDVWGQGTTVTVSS VL: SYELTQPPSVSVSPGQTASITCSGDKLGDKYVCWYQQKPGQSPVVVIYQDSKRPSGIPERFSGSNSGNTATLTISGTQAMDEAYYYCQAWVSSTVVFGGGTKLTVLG
0.126
